All values here come from paper PMC3897377.

# TARGET: T1, DBL1-ID2a protein of VAR2CSA (containing minimal CSA-binding region), baculovirus-produced (Plasmodium falciparum FCR3 (assumed for …, UniProt Q6UDW7, strain))
# T1 construct: DBL1-ID2a; source: baculovirus-produced
# PROTOCOL TEXT: far-Western, overlay or dot blot; Western blot: recombinant VAR2CSA domain (0,4 µg/lane) run NON-REDUCED on SDS gel, blotted to nitrocellulose, probed with 50 nM Nb in TBST; rabbit anti-camel and HRP anti-rabbit
# CONDITION DETAILS: both partners purified

BINDER	binding result
Nb12 (VHH, from an alpaca immunized with full-length VAR2CSA; pHEN6c vector; also called Nanobody 12; VHH; source: E. coli WK6, periplasmic extract, purified (HisTrap); not shown: His6, C-terminal, kept) VHH: QVQLQESGGGLVQVGGSLRLSCAASGRTFSNYAMGWFRQAPGEEREFVAAISWSDNNTLYTDSVKGRFTISRDNAENTVYLQMNSLEPEDTAVYYCAAGRRPRLRVGLNEFDYWGQGTQVTVSS	binds
Nb09 (VHH, from an alpaca immunized with full-length VAR2CSA; pHEN6c vector; also called Nanobody 09; VHH; source: E. coli WK6, periplasmic extract, purified (HisTrap); not shown: His6, C-terminal, kept) VHH: QVQLQESGGGLVQAGGSLRLSCAASGRTFSNYGMGWFRQTPEKERDLLAAVTWSGGRTYYADSVKGRFTISRDNAKNTVYLQMNSLKPEDTAVYYCAAGELFYSDYGPEGEWDYWGQGTQVTVSS	binds
Nb10 (VHH, from an alpaca immunized with full-length VAR2CSA; pHEN6c vector; also called Nanobody 10; VHH; source: E. coli WK6, periplasmic extract, purified (HisTrap); not shown: His6, C-terminal, kept) VHH: QVQLQESGGGLVQAGGSLRLSCAASGRTFSSNLMGWLRQAPGKEREFVAAMSMSGGDTFYADSVKGRFTISRDNAKNMVHLQMNSLKPEDTAIYYCAAADVRLSAYEYDYWGQGTQVTVSS	binds
